measured.on: Transient receptor potential cation channel subfamily V member 3 (Homo sapiens)
test.method.notes: Antagonist activity at human TRPV3 channel expressed in HEK293T cells assessed as inhibition of 2-APB induced channel current at 50 uM by whole cell patch clamp recordings relative to control
Assay type: cell-based
Response key: Criterion met means inhibition >= 6%; Criterion not met means inhibition < 6%.

Solved cases (8 shown):
Query: Does inhibition meet or surpass 6% for "O=c1cc(-c2ccc(Br)cc2)oc2cc(O)ccc12" ?
Reply: Criterion not met

Query: Does inhibition meet or surpass 6% for "COc1ccc(-c2cc(=O)c3c(O)cccc3o2)cc1" ?
Reply: Criterion not met

Query: Does inhibition meet or surpass 6% for "O=c1cc(-c2ccc(O)cc2F)oc2cc(O)cc(O)c12" ?
Reply: Criterion met

Query: Does inhibition meet or surpass 6% for "Cc1ccc(-c2cc(=O)c3c(O)cc(O)cc3o2)cc1" ?
Reply: Criterion met

Query: Does inhibition meet or surpass 6% for COc1ccc(C2CC(=O)c3c(O)cccc3O2)cc1 (centres undefined) ?
Reply: Criterion not met

Query: Does inhibition meet or surpass 6% for "O=c1cc(-c2cccc(O)c2)oc2c(O)c(O)ccc12" ?
Reply: Criterion met

Query: Does inhibition meet or surpass 6% for COCOc1cc(OCOC)c2c(c1)OC(c1ccc(F)cc1)CC2=O (centres undefined) ?
Reply: Criterion not met

Query: Does inhibition meet or surpass 6% for "O=c1cc(-c2ccc(OC(F)(F)F)cc2)oc2cc(O)cc(O)c12" ?
Reply: Criterion not met

Let us examine a further case.
Query: Does inhibition meet or surpass 6% for "O=c1cc(-c2ccc(F)cc2)oc2cc(O)cc(O)c12" ?
Reply: Criterion met

Origin of measurements: ChEMBL document CHEMBL5356963
